- target: Kv1.5 (Homo sapiens, UniProt P22460)
- Sequence (P22460 whole entry): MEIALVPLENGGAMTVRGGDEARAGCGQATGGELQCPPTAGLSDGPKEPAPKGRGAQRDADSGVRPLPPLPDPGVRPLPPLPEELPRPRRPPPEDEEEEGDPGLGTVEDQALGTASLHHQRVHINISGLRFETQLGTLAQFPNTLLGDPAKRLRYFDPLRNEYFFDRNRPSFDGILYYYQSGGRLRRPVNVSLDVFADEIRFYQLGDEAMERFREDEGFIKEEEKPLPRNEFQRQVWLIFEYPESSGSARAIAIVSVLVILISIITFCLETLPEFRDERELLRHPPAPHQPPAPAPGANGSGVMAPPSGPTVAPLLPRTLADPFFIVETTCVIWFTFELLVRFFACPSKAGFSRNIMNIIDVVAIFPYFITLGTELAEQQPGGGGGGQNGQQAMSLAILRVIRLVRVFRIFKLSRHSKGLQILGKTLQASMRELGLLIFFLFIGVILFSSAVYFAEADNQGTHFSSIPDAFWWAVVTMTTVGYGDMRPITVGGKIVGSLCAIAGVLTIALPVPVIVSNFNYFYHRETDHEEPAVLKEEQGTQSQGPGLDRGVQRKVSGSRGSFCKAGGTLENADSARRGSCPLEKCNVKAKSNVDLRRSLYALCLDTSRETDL
- assay_name: Kv1.5 inhibition assay (IKur inhibitor assay per cited references)
- Format: cell-based
- run_conditions: at 0.3 μM
Lab note: anything with inhibition at 0.3 µM at or over 60% counts as 1 (yes); the rest go in 0 (no).

Q. Hi, just wondering whether CCCS(=O)(=O)N(C(=O)C1=C(C)Nc2cc(C(F)(F)F)nn2C1c1ccc(Cl)c(Cl)c1)C1CC1 (racemic) shows inhibition at 0.3 µM of 60% or higher.
A. 1 (yes)

Q. Hi, just wondering whether CC1=C(S(=O)(=O)c2ccccc2)C(c2ccc(Cl)c(F)c2)n2nc(C(F)(F)F)cc2N1 (single isomer, unassigned) [Example 33 Isomer 1] shows inhibition at 0.3 µM of 60% or higher.
A. 1 (yes)

Q. Hi, just wondering whether CC1=C(C(=O)N(C)S(=O)(=O)c2ccc3ccc(Cl)cc3c2)C(c2ccc(Cl)c(Cl)c2)n2nccc2N1 (racemic) shows inhibition at 0.3 µM of 60% or higher.
A. 0 (no)

###

- target: Kv1.5 (Homo sapiens, UniProt P22460)
- assay_name: Kv1.5 inhibition assay (IKur inhibitor assay per cited references)
- Assay type: cell-based
- run_conditions: at 0.3 μM
reported_metric: inhibition at 0.3 µM

Q. Give a short answer stating reported inhibition at 0.3 µM for CC1=C(S(=O)(=O)NC(C)(C)C)C(c2ccc(Cl)c(Cl)c2)n2nc(C(F)(F)F)cc2N1 (single isomer, unassigned) [Example 58 Isomer 1] .
A. 42.9%

Q. Give a short answer stating reported inhibition at 0.3 µM for CC1=C(S(=O)(=O)N2CCCC2)C(c2ccc(Cl)c(Cl)c2)n2nc(C(F)(F)F)cc2N1 (single isomer, unassigned) [Example 59 Isomer 1] .
A. 89.8%

Q. Give a short answer stating reported inhibition at 0.3 µM for CC1=C(C(=O)N(C)S(=O)(=O)c2ccc(F)cc2)C(c2ccc(Cl)c(Cl)c2)n2nc(C(F)(F)F)cc2N1 (racemic) .
A. 7%

Q. Give a short answer stating reported inhibition at 0.3 µM for CC1=C(S(=O)(=O)C2CCCCC2)C(c2ccc(Cl)cc2)n2nc(C(F)(F)F)cc2N1 (single isomer, unassigned) [Example 29 Isomer 2] .
A. 87.9%

Q. Give a short answer stating reported inhibition at 0.3 µM for CC1=C(S(=O)(=O)c2ccc(Cl)cc2)C(c2cc3ccccc3n2C)n2nc(C(F)(F)F)cc2N1 (racemic) .
A. 34%

Q. Give a short answer stating reported inhibition at 0.3 µM for CC1=C(S(=O)(=O)N2CCCCC2)C(c2ccc(Cl)c(Cl)c2)n2nc(C(F)(F)F)cc2N1 (single isomer, unassigned) [Example 65 Isomer 1] .
A. 81%

Q. Give a short answer stating reported inhibition at 0.3 µM for CCCS(=O)(=O)N(C)C(=O)C1=C(C)Nc2cc(C(F)(F)F)nn2C1c1ccc(Cl)c(Cl)c1 (single isomer, unassigned) [Example 91 Isomer 1] .
A. 72%

Q. Give a short answer stating reported inhibition at 0.3 µM for COc1cccc(S(=O)(=O)C2=C(C)Nc3cc(C(F)(F)F)nn3C2c2ccc(Cl)c(Cl)c2)c1 (single isomer, unassigned) [Example 39 Isomer 1] .
A. 78.6%

Q. Give a short answer stating reported inhibition at 0.3 µM for CC1=C(C(=O)N(C)S(=O)(=O)C(C)C)C(c2ccc(Cl)c(Cl)c2)n2nc(C(F)(F)F)cc2N1 (single isomer, unassigned) [Example 96 Isomer 1] .
A. 57%

Q. Give a short answer stating reported inhibition at 0.3 µM for COc1ccc(S(=O)(=O)C2=C(C)Nc3cc(C(F)(F)F)nn3C2c2ccc(C)c(F)c2)cc1 (single isomer, unassigned) [Example 32 Isomer 1] .
A. 81.8%

Q. Give a short answer stating reported inhibition at 0.3 µM for CC1=C(S(=O)(=O)c2ccccn2)C(c2ccc(Cl)cc2)n2nc(C(F)(F)F)cc2N1 (single isomer, unassigned) [Example 47 Isomer 2] .
A. 75.8%

Q. Give a short answer stating reported inhibition at 0.3 µM for CCCCS(=O)(=O)NC(=O)C1=C(C)Nc2cc(C(F)(F)F)nn2C1c1ccc(Cl)c(Cl)c1 (racemic) .
A. 11%

Q. Give a short answer stating reported inhibition at 0.3 µM for CC1=C(C(=O)N2CCN(C)S2(=O)=O)C(c2ccc(Cl)c(Cl)c2)n2nc(C)cc2N1 (racemic) .
A. 40%

Q. Give a short answer stating reported inhibition at 0.3 µM for CC1=C(S(=O)(=O)c2ccc(Cl)cc2)C(c2ccc(F)cc2)n2nc(C(F)(F)F)cc2N1 (single isomer, unassigned) [Example 43 Isomer 1] .
A. 83.6%

Q. Give a short answer stating reported inhibition at 0.3 µM for COc1ccc(S(=O)(=O)C2=C(C)Nc3cc(C)nn3C2c2ccc(Cl)cc2)cc1 (single isomer, unassigned) [Example 19 Isomer 2] .
A. 42.3%

Q. Give a short answer stating reported inhibition at 0.3 µM for CC1=C(S(=O)(=O)NC(C)(C)C)C(c2ccc(Cl)cc2)n2nc(C(F)(F)F)cc2N1 (racemic) [Example 57] .
A. 34.1%

Q. Give a short answer stating reported inhibition at 0.3 µM for COc1ccccc1S(=O)(=O)C1=C(C)Nc2cc(C(F)(F)F)nn2C1c1ccc(Cl)cc1 (single isomer, unassigned) [Example 46 Isomer 1] .
A. 78.1%

Q. Give a short answer stating reported inhibition at 0.3 µM for CC1=C(S(=O)(=O)N(C)c2ccccc2)C(c2ccc(Cl)c(Cl)c2)n2nc(C(F)(F)F)cc2N1 (single isomer, unassigned) [Example 63 Isomer 1] .
A. 30%

Q. Give a short answer stating reported inhibition at 0.3 µM for CC1=C(S(=O)(=O)N2CCCC2)C(c2ccc(Cl)c(Cl)c2)n2nc(C)c(Cl)c2N1 (single isomer, unassigned) [Example 69 Isomer 1] .
A. 40%

###

- target: Kv1.5 (Homo sapiens, UniProt P22460)
- assay_name: Kv1.5 inhibition assay (IKur inhibitor assay per cited references)
- Format: cell-based
- run_conditions: at 0.3 μM
reported_metric: Kv1.5% inhibition (%)
Write down the numeric answer in % and omit the unit.

Q. Give a short answer stating reported Kv1.5% inhibition for COc1cccc(S(=O)(=O)C2=C(C)Nc3cc(C(F)(F)F)nn3C2c2ccc(C)c(F)c2)c1 (single isomer, unassigned) [Example 41 Isomer 2] .
A. 85.8

Q. Give a short answer stating reported Kv1.5% inhibition for CC1=C(S(=O)(=O)NC(C)(C)C)C(c2ccc(Cl)cc2)n2nc(C(F)(F)F)cc2N1 (single isomer, unassigned) [Example 57 Isomer 2] .
A. 36.9

Q. Give a short answer stating reported Kv1.5% inhibition for CC1=C(S(=O)(=O)c2ccccc2)C(c2ccc(Cl)c(F)c2)n2nc(C(F)(F)F)cc2N1 (single isomer, unassigned) [Example 33 Isomer 2] .
A. 76.5
